# TARGET DESC: human RORγ (Homo sapiens, UniProt P51449)
# Construct: human RORγ, from Ser253 to Lys518; expressed in transfected cells; host or cells: CHO cells (Chinese hamster ovary), transient co-transfection with pG5-Luc
# Sequence (P51449 253-518): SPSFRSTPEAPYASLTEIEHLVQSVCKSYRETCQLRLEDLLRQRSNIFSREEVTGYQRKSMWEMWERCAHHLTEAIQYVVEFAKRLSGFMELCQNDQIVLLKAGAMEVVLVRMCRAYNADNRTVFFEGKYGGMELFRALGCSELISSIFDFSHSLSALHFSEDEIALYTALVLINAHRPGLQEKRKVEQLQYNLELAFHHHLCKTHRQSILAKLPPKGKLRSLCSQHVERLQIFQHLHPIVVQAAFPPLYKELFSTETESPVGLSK
# TEST NAME: In vitro assay of inhibitory effect against RORγ transcriptional activity (GAL4-hRORγ LBD luciferase reporter gene assay in CHO cells)
# Type: cell-based
# ASSAY CONTEXT: GAL4-hRORγ LBD / pG5-Luc in CHO cells, 2 days incubation
EXPERIMENTAL ENDPOINT: EC50 (nM)
Your answer is read as nM, so omit the unit and give the number.

Reported EC50 ( CC(C)C1=CN([C@H]2C[C@@H](C(=O)O)C2)C(=O)N[C@]1(C)c1ccc(CCC(C)(C)C)c(Cl)c1 ) = 7330

Lookup result for CC(C)C1=CN([C@H]2C[C@](C)(C(=O)O)C2)C(=O)N[C@]1(C)c1ccc(CCC(C)(C)C)c(Cl)c1 ; measured EC50: 405

Entry CC(C)C1=CN(CCC(=O)O)C(=O)N[C@@]1(C)c1ccc(C2CC2C(C)(C)C)c(Cl)c1 (single isomer, unassigned) [Example 170] ; EC50 = 58

Entry CC(C)(C)CCc1ccc([C@]2(C)NC(=O)N(CCCC(=O)O)C=C2C2CCC2)cc1Cl — recorded EC50 = 12

Input CC(C)=Cc1ccc(C2(C)NC(=O)N(CCCC(=O)O)C=C2C(C)C)cc1 (racemic) . Output EC50: 2610

Given item CC(C)C1=CN([C@H]2C[C@H](CC(=O)O)C2)C(=O)N[C@]1(C)c1ccc(CCC(C)(C)C)c(Cl)c1 (single isomer, unassigned) , the value recorded as its EC50 is 3930

====

# TARGET DESC: human RORγ (Homo sapiens)
# Construct: human RORγ, from Ser253 to Lys518; expressed in transfected cells; host or cells: CHO cells (Chinese hamster ovary), transient co-transfection with pG5-Luc
# TEST NAME: In vitro assay of inhibitory effect against RORγ transcriptional activity (GAL4-hRORγ LBD luciferase reporter gene assay in CHO cells)
# Type: cell-based
# ASSAY CONTEXT: GAL4-hRORγ LBD / pG5-Luc in CHO cells, 2 days incubation
EXPERIMENTAL ENDPOINT: pEC50
Note on pEC50: it is the negative log10 of concentration, concentration in mol/L.

pEC50 for CC(C)C1=CN([C@H]2C[C@H](C(=O)O)C2)C(=O)N[C@@]1(C)c1cc(Cl)c(CCC(C)(C)C)cc1F is 7.30

# pEC50 of CC(C)C1=CN(CCCC(=O)O)C(=O)NC1(C)c1ccc(OCCC(F)(F)F)cc1 (racemic) = 5.55

pEC50 in this record for CC(C)(C)C#Cc1ccc(C2NC(=O)N(CCCC(=O)O)C=C2C(C)(C)C)cc1Cl (racemic) : 6.76

Memo: CC(C)C1=CN(C23CC(C(=O)O)(C2)C3)C(=O)N[C@@]1(C)c1ccc(CCC(C)(C)C)c(Cl)c1 [Example 77] , reported pEC50: 7.82

Lookup result for CC(C)C1=CN(CCC(=O)O)C(=O)N[C@@]1(C)c1ccc(CCC2CCCC2)c(Cl)c1 ; measured pEC50: 7.21

pEC50 reading for CC(C)C1=CN(CCC(=O)O)C(=O)N[C@@]1(C)c1ccc(C2CCCC2)c(Cl)c1 : 6.28

Reported pEC50 of CC(C)(C)C1=CN(CCCC(=O)O)C(=O)NC1c1ccc(OCCC2CCCCC2)c(Cl)c1 (racemic) : 6.74

Per the records, this molecule ( CC(C)C1=CN(CCC(=O)O)C(=O)N[C@@]1(C)c1cc(F)c(OCC(C)(C)C)c(Cl)c1 ) has pEC50 equal to 7.74

The molecule listed as CC(C)C1=CN(CCC2(C(=O)O)CC2)C(=O)N[C@@]1(C)c1ccc(CCC(C)(C)C)c(Cl)c1 shows pEC50 equal to 7.89

Item: CC(C)C1=CN(CCC(C)C(=O)O)C(=O)NC1(C)c1ccc(OCC(C)(C)C)c(Cl)c1 (single isomer, unassigned) [Example 19] | pEC50: 5.64

# pEC50 (molecule: COCCOc1ccc([C@]2(C)NC(=O)N(CCC(=O)O)C=C2C(C)C)cc1Cl ) is 5.53

Query CCC1=CN(CCCC(=O)O)C(=O)N[C@@]1(C)c1ccc(CCC(C)(C)C)c(Cl)c1 yields pEC50 of 7.70

Documented pEC50 of CC(C)C1=CN(CCC(=O)O)C(=O)N[C@@]1(C)c1ccc(CCC2(C)CC2)c(Cl)c1 : 7.74

Memo: CC(C)C1=CN(CCC(C)C(=O)O)C(=O)NC1(C)c1ccc(OCC(C)(C)C)c(Cl)c1 (mixture of isomers) [Example 21] , reported pEC50: 7.72

Recorded result, CC(C)C1=CN(CCC(C)C(=O)O)C(=O)NC1(C)c1ccc(CCC(C)(C)C)c(Cl)c1 (single isomer, unassigned) [Example 24] , pEC50: 5.53

For record CCCCCc1ccc(C2(C)NC(=O)N(CCCC(=O)O)C=C2C(C)C)cc1Cl (racemic) the listed pEC50 is 7.44

Short answer for CC(C)C1=CN(CCC(=O)O)C(=O)N[C@@]1(C)c1ccc(CCCC(F)(F)F)c(Cl)c1 : pEC50 was 7.33

For this molecule ( CC(C)C1=CN(CCC(=O)O)C(=O)N[C@@]1(C)c1cc(F)c(CCC(C)(C)C)c(Cl)c1 ), measured pEC50 is 8.05

The recorded pEC50 for CC(C)(C)CCc1ccc([C@@]2(C)NC(=O)N(CCCC(=O)O)C=C2C2CC(F)(F)C2)cc1Cl is 5.69

response.value for CC(C)(C)CCc1ccc([C@]2(C)NC(=O)N(CCCC(=O)O)C=C2C2CC(F)(F)C2)cc1Cl (field: pEC50) = 7.85

Documented pEC50 of CC(C)C1=CN(CCC(=O)O)C(=O)N[C@@]1(C)c1ccc(C2=CCCCC2)c(Cl)c1 : 7.15

pEC50 reported for this molecule CC(C)C1=CN(CCC(=O)O)C(=O)N[C@@]1(C)c1ccc(CCC(C)(C)C(F)(F)F)c(Cl)c1 : 8.05

Record CC(C)C1=CN(C23CC(C(=O)O)(C2)C3)C(=O)N[C@]1(C)c1ccc(CCC(C)(C)C)c(Cl)c1 . Reported pEC50: 5.46

The molecule CC(C)C1=CN(CC[C@@H](O)C(=O)O)C(=O)N[C@@]1(C)c1ccc(CCC(C)(C)C)c(Cl)c1 showed pEC50 equal to 7.80

Record summary for CCCC(CCC)Cc1ccc([C@]2(C)NC(=O)N(CCC(=O)O)C=C2C(C)C)cc1Cl : reported pEC50 = 7.72

====

# TARGET DESC: mouse RORγ (Mus musculus)
# Construct: mouse RORγ, from Ile251 to Lys516; expressed in transfected cells; host or cells: CHO cells (Chinese hamster ovary), transient co-transfection with pG5-Luc
# Sequence (P51450 251-516): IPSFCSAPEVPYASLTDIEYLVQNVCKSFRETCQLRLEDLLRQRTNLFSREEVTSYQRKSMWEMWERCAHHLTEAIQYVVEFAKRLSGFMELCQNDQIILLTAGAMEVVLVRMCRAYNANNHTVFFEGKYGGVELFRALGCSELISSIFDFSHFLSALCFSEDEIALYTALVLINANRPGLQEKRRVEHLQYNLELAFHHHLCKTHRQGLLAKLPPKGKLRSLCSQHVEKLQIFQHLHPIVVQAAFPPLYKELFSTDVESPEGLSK
# TEST NAME: In vitro assay of inhibitory effect against RORγ transcriptional activity (GAL4-mRORγ LBD luciferase reporter gene assay in CHO cells)
# Format: cell-based
# ASSAY CONTEXT: GAL4-mRORγ LBD luciferase reporter, CHO cells; read-out: LUC EC50 mRORγ
Rule: measured EC50 below 50 nM gets yes; anything equal to or greater than 50 nM gets no.

Problem: Dear reviewer, please state whether CC(C)CCOc1ccc([C@]2(C)NC(=O)N(C34CC(C(=O)O)(C3)C4)C=C2C2CC(F)(F)C2)cc1Cl [Example 349] has EC50 strictly beneath 50 nM.
Result: yes

Problem: Below 50 nM on EC50? Entry COCCC1=CN([C@H]2CC[C@H](C(=O)O)CC2)C(=O)N[C@@]1(C)c1ccc(CCC(C)(C)C)c(C(F)(F)F)c1 [Example 325]
Result: no

Problem: Threshold test, EC50 < 50 nM: CC(C)CC[S+]([O-])c1ccc([C@]2(C)NC(=O)N(CCC(=O)O)C=C2C(C)C)cc1Cl (mixture of isomers) [Example 217]
Result: no

Problem: EC50 strictly < 50 nM for this compound? CC(C)C1=CN(C2CCCC(C(=O)O)C2)C(=O)N[C@@]1(C)c1ccc(CCC(C)(C)C)c(Cl)c1 (single isomer, unassigned) [Example 256]
Result: yes

Problem: Determine whether this compound shows EC50 lower than 50 nM (ties excluded): CC(C)C1=CN(C23CCC(C(=O)O)(C2)C3)C(=O)N[C@@]1(C)c1ccc(CCC(C)(C)C)c(C(F)(F)F)c1 [Example 314]
Result: yes
